read-out: CD40, CD40 (gene 958); experiment: BSK_LPS_CD40: BioMAP Diversity Plus: LPS Assay for CD40 Biomarker Activity (AID 2283076); settings: primary human HUVEC with PBMC; actives raise or lower the signal
The source made the active and inactive calls. The calls were made as follows: active = hit-call score of the fitted dose curve at least 0.9, where 1 is the maximum; inactive = score below 0.9.
Labels: y for active, n for inactive

INSERT INTO assay_data (compound, category) VALUES
  ('O=C(O)C[C@H](O)C[C@H](O)/C=C/c1c(C2CC2)nc2ccccc2c1-c1ccc(F)cc1', 'n'),
  ('Cc1cc(C2(c3cc(C)c(O)cc3C)OS(=O)(=O)c3ccccc32)c(C)cc1O', 'n'),
  ('CC(=O)[C@H]1CC[C@H]2[C@@H]3CC=C4C[C@@H](O)CC[C@]4(C)[C@H]3CC[C@]12C', 'n'),
  ('CC1COc2ccccc2N1C(=O)C(Cl)Cl (stereo not drawn)', 'y'),
  ('CCCCC/C=C/C=C/C=O', 'y'),
  ('CCCCCCCCCCCCCCCCCC(=O)OCC(CC)CCCC (stereo not drawn)', 'n'),
  ('C#C[C@]1(O)CC[C@H]2[C@@H]3CCC4=Cc5oncc5C[C@]4(C)[C@H]3CC[C@@]21C', 'n'),
  ('O=C1CCCCCCCCCCCCCCO1', 'n'),
  ('CC(C)Oc1ccccc1O', 'n'),
  ('Nc1cc([N+](=O)[O-])ccc1O', 'n'),
  ('CN(CCOc1ccc(CC2SC(=O)NC2=O)cc1)c1ccccn1 (stereo not drawn)', 'y'),
  ('O=C=NC1CCC(CC2CCC(N=C=O)CC2)CC1 (stereo not drawn)', 'n'),
  ('CCC(=O)OCc1ccccc1', 'n'),
  ('CC(=O)OCCC(C)CC(C)(C)C (stereo not drawn)', 'n'),
  ('O=P(c1ccccc1)(c1ccccc1)c1ccccc1', 'n'),
  ('CCCCCCCCCC=O', 'n'),
  ('O=C(O)c1cn(-c2ccc(F)cc2)c2cc(N3CCNCC3)c(F)cc2c1=O', 'n'),
  ('CNC[C@H](O)c1cccc(O)c1', 'n');

====

assay: ATG_NF_kB_CIS: Attagene CIS-FACTORIAL HepG2 Assay for human Nuclear Factor Kappa B (NF-kB) (AID 2282991); conditions: HepG2 Attagene cis-factorial NF-kB reporter mRNA; actives raise or lower the signal
Active and inactive are the calls of the source. The calls were made as follows: active = hit-call score of the fitted dose curve at least 0.9, where 1 is the maximum; inactive = score below 0.9.
Labels: True for active, False for inactive

INSERT INTO assay_data (molecule, category) VALUES
  ('C=C(C)C(=O)Nc1ccc(Cl)c(Cl)c1', 'False'),
  ('OCCOCCOCCOCCO', 'False'),
  ('O=C(Nc1ccccc1)c1cc([N+](=O)[O-])ccc1Cl', 'False'),
  ('CC(CCO)CCCC(C)(C)O (stereo not drawn)', 'False'),
  ('COc1cc(C)cc(O)c1', 'False'),
  ('C=CC[N+](C)(C)CC=C', 'False'),
  ('CCCCCCCCCOC(C)=O', 'False'),
  ('NCCCCCCN', 'False'),
  ('c1ccc2sc(SN(C3CCCCC3)C3CCCCC3)nc2c1', 'False'),
  ('N#Cc1nc(Cl)c(Cl)c(Cl)c1Cl', 'True'),
  ('C[Si](O[Si](C)(C)C)O[Si](C)(C)C', 'False'),
  ('O=[N+]([O-])c1ccc(C=Cc2ccc([N+](=O)[O-])cc2S(=O)(=O)O)c(S(=O)(=O)O)c1', 'False'),
  ('C=CC(C)(O)CCC=C(C)CCC=C(C)C (stereo not drawn)', 'True');
